- Tested on: CD1 mice
- Assay Procedure: Mouse elevated plus-maze (EPM) test of anxiolytic activity
- Type: in vivo
- Measurement Setup: level of increase in time spent in the open arms; dose or dose range in brackets; given 15 minutes before 5 minute test

Molecule	EPM
CN1CCC[C@H]1COc1cccnc1.O=C(O)/C=C/C(=O)O [Example 4]	NE [0.019-0.62]
Cl.c1cnc(OC[C@@H]2CCN2)cn1 [Example 7]	NE [0.019-0.62]
CN1CCC[C@H]1COc1cnccn1.O=C(O)/C=C/C(=O)O [Example 3]	NE [0.019-0.62]

* * *

- Tested on: cholinergic channel receptors in PC12 cells
- Assay Procedure: Whole-cell patch-clamp measurement of cholinergic channel activation in NGF-differentiated PC12 cells
- Format: cell-based, rat
- Measurement Setup: PC12 cells current response
pEC50: −log10 of the molar value.
Measured Parameter: pEC50

Molecule	Target System	Value
CN1CCCC1c1cccnc1 (single isomer, unassigned; (-)) [(-)-nicotine, reference compound]	cholinergic channel receptors in PC12 cells	4.28
